Origin of measurements: patent US9187424B1

- target_or_test_system: Human MGAT-2 (Homo sapiens (Human), UniProt Q3SYC2)
- Sequence (Q3SYC2 whole entry): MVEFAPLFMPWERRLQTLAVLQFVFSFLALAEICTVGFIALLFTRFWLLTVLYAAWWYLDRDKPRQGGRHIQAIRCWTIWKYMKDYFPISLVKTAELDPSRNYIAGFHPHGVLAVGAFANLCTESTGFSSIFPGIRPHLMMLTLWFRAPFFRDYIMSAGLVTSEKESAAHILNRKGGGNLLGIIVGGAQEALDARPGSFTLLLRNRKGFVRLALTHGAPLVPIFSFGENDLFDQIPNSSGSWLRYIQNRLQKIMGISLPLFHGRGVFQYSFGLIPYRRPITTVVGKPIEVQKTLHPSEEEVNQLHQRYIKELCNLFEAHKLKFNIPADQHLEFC
- experiment_description: MGAT LCMS Assay (human MGAT-2)
- Format: biochemical
- experimental_parameters: human MGAT-2 membranes expressed in Sf9 cells; 2-oleoylglycerol and oleoyl-Coenzyme A; read-out: h-MGAT2 IC50 (nM) LCMS Assay
property_measured: IC50 (nM)
Express it in nM; write the number only.

Consider the following illustrative entries.
molecule: CCCCCCCNC(=O)C1(C)CC(c2ccc(C)cc2)=C(C(=O)Nc2ccc(OC)cc2)C(=O)N1 (stereo not shown)
scale_unit: nM
IC50: 102
//
molecule: COc1ccc(C2=C(C#N)C(=O)NC(c3ccc(OCCCC(F)(F)F)cc3)(C(F)(F)F)C2)c(F)c1 (stereo not shown) [Example 91]
scale_unit: nM
IC50: 2
//
molecule: N#CC1=C(c2ccc(C(F)(F)F)cc2)CC(c2ccc(OCCCC(F)(F)F)cc2)(C(F)(F)F)NC1=O (stereo not shown)
scale_unit: nM
IC50: 209
//
molecule: Cc1ccc(C2=C(c3nn[nH]n3)C(=O)NC(c3ccc(OCCCC(F)(F)C(F)(F)F)cc3)(C(F)(F)F)C2)cc1 (stereo not shown)
scale_unit: nM
IC50: 4
//
molecule: N#CC1=C(c2cccc(Cl)c2)CC(c2ccc(OCCCC(F)(F)F)cc2)(C(F)(F)F)NC1=O (stereo not shown)
scale_unit: nM
IC50: 1280

Quick one: IC50 for N#CC1=C(c2cccc(C#N)c2)CC(c2ccc(OCCCC(F)(F)F)cc2)(C(F)(F)F)NC1=O (stereo not shown) ?
983

Quick one: IC50 for CCCCCCCC#CC1(C(F)(F)F)CC(c2ccc(OC(F)F)cc2)=C(NC(=O)CS(C)(=O)=O)C(=O)N1 (stereo not shown) ?
4

Quick one: IC50 for Cc1ccc(C2=C(NC(=O)c3ccc(Cl)nn3)C(=O)NC(c3ccc(OCCCC(F)(F)F)cc3)(C(F)(F)F)C2)cc1 (stereo not shown) ?
75

Quick one: IC50 for CCCCCCC#Cc1ccc(C2(C(F)(F)F)CC(c3ccc(OCC)cc3)=C(c3nn[nH]n3)C(=O)N2)cc1F (stereo not shown) ?
61

Quick one: IC50 for Cc1ccc(C2=C(C(=O)Nc3nn[nH]n3)C(=O)NC(c3ccc(C4=CCCC4)cc3)(C(F)(F)F)C2)cc1 (stereo not shown) ?
33

----------
- target_or_test_system: Human MGAT-2 (Homo sapiens (Human), UniProt Q3SYC2)
- experiment_description: MGAT LCMS Assay (human MGAT-2);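 also: diolein product quantified by LC/MS with positive APCI, expressed as peak area ratio versus an internal standard, and this ratio used to derive IC50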
- Type: biochemical
- experimental_parameters: human MGAT-2 membranes expressed in Sf9 cells; 2-oleoylglycerol and oleoyl-Coenzyme A; read-out: h-MGAT2 IC50 (nM) LCMS Assay
property_measured: IC50
Units required after the number.

Consider the following illustrative entries.
compound: CCCCCCCC#CC1(C(F)(F)F)CC(c2ccc(C)cc2)=C(c2cn[nH]n2)C(=O)N1 (stereo not drawn) [Example 196]
target_or_test_system: Human MGAT-2 (Homo sapiens (Human), UniProt Q3SYC2)
result: 826 nM

compound: Cc1ccc(C2=C(c3nn[nH]n3)C(=O)NC(c3ccc(OCCCCCC(F)(F)F)c(C)c3)(C(F)(F)F)C2)cc1 (stereo not drawn)
target_or_test_system: Human MGAT-2 (Homo sapiens (Human), UniProt Q3SYC2)
result: 13 nM

compound: CCCCCCCC#CC1(C(F)(F)F)CC(c2ccc(C)cc2)=C(c2cn[nH]n2)C(=O)N1 (stereo not drawn) [Example 195]
target_or_test_system: Human MGAT-2 (Homo sapiens (Human), UniProt Q3SYC2)
result: 33 nM

Form field - read-out: IC50; system: Human MGAT-2 (Homo sapiens (Human), UniProt Q3SYC2); submitted item: Cc1ccc(C2=C(C(=O)Nc3ccc(-c4nn[nH]n4)cc3)C(=O)NC(c3ccc(OCCC(F)(F)F)cc3)(C(F)(F)F)C2(F)F)cc1 (stereo not drawn)
168 nM

Form field - read-out: IC50; system: Human MGAT-2 (Homo sapiens (Human), UniProt Q3SYC2); submitted item: COCc1ccc(C2=C(C#N)C(=O)NC(c3ccc(OCCCC(F)(F)F)cc3)(C(F)(F)F)C2)cc1 (stereo not drawn)
56 nM

Form field - read-out: IC50; system: Human MGAT-2 (Homo sapiens (Human), UniProt Q3SYC2); submitted item: COc1ccc(C2=C(c3nn[nH]n3)C(=O)NC(C#CCCC(C)C)(C(F)(F)F)C2)cc1 (stereo not drawn)
183 nM

Form field - read-out: IC50; system: Human MGAT-2 (Homo sapiens (Human), UniProt Q3SYC2); submitted item: Cc1ccc(C2=C(NC(=O)c3cc(-c4ccccc4Cl)no3)C(=O)NC(c3ccc(OCCCC(F)(F)F)cc3)(C(F)(F)F)C2)cc1 (stereo not drawn)
121 nM

Form field - read-out: IC50; system: Human MGAT-2 (Homo sapiens (Human), UniProt Q3SYC2); submitted item: CCCCCCCCNC(=O)C1(C)CC(c2ccc(C)cc2)=C(C#N)C(=O)N1 (stereo not drawn)
399 nM

Form field - read-out: IC50; system: Human MGAT-2 (Homo sapiens (Human), UniProt Q3SYC2); submitted item: COc1ccc(C2=C(c3ccc(C)cc3)C(F)(F)C(c3ccc(OCCCC(F)(F)F)cc3)(C(F)(F)F)NC2=O)cn1 (stereo not drawn)
356 nM

Form field - read-out: IC50; system: Human MGAT-2 (Homo sapiens (Human), UniProt Q3SYC2); submitted item: CCCCCCCc1cnc(C2(C(F)(F)F)CC(c3ccc(C)cc3)=C(c3nn[nH]n3)C(=O)N2)s1 (stereo not drawn)
304 nM

Form field - read-out: IC50; system: Human MGAT-2 (Homo sapiens (Human), UniProt Q3SYC2); submitted item: Cc1ccc(C2=C(c3nn[nH]n3)C(=O)NC(c3ccc(Br)cc3)(C(F)(F)F)C2)cc1 (stereo not drawn) [Example 233]
639 nM

Form field - read-out: IC50; system: Human MGAT-2 (Homo sapiens (Human), UniProt Q3SYC2); submitted item: Cc1ccc(C2=C(N)C(=O)N[C@@](c3ccc(OCCCC(F)(F)F)cc3)(C(F)(F)F)C2)cc1
103 nM

Form field - read-out: IC50; system: Human MGAT-2 (Homo sapiens (Human), UniProt Q3SYC2); submitted item: Cc1ccc(C2=C(C(=O)Nc3ccno3)C(=O)NC(c3ccc(OCCC(F)(F)F)cc3)(C(F)(F)F)C2)cc1 (stereo not drawn)
1 nM

Form field - read-out: IC50; system: Human MGAT-2 (Homo sapiens (Human), UniProt Q3SYC2); submitted item: COc1ccc(NC(=O)C2=C(c3ccc(C)cc3)CC(C)(C(=O)NCCCCc3ccccc3)NC2=O)cc1 (stereo not drawn)
78 nM

Form field - read-out: IC50; system: Human MGAT-2 (Homo sapiens (Human), UniProt Q3SYC2); submitted item: COc1ccc(C(=O)NC2=C(c3ccc(C)cc3)C(F)(F)C(c3ccc(OCCCC(F)(F)F)cc3)(C(F)(F)F)NC2=O)cc1 (stereo not drawn)
47 nM

Form field - read-out: IC50; system: Human MGAT-2 (Homo sapiens (Human), UniProt Q3SYC2); submitted item: Cc1ccc(C2=C(C#N)C(=O)NC(c3ccc(OCCOC(C)(C)C)cc3)(C(F)(F)F)C2)cc1 (stereo not drawn)
126 nM

Form field - read-out: IC50; system: Human MGAT-2 (Homo sapiens (Human), UniProt Q3SYC2); submitted item: Cc1ccc(C2=C(NC(=O)c3ccc(F)cc3Cl)C(=O)NC(c3ccc(OCCCC(F)(F)F)cc3)(C(F)(F)F)C2)cc1 (stereo not drawn)
210 nM

Form field - read-out: IC50; system: Human MGAT-2 (Homo sapiens (Human), UniProt Q3SYC2); submitted item: Cc1ccc(C2=C(n3cnnc3C)C(=O)NC(c3ccc(OCCCC(F)(F)F)cc3)(C(F)(F)F)C2)cc1 (stereo not drawn)
229 nM

Form field - read-out: IC50; system: Human MGAT-2 (Homo sapiens (Human), UniProt Q3SYC2); submitted item: Cc1ccc(C2=C(C(=O)Nc3ccc(C)c(F)c3)C(=O)NC(c3ccc(OCCCC(F)(F)F)cc3)(C(F)(F)F)C2)cc1 (stereo not drawn)
7 nM

Form field - read-out: IC50; system: Human MGAT-2 (Homo sapiens (Human), UniProt Q3SYC2); submitted item: COc1ccc(NC(=O)C2C(=O)N[C@@](c3ccc(OCCCC(F)(F)F)cc3)(C(F)(F)F)CC2c2ccc(C)cc2)cc1 (single isomer, unassigned) [Example 16-1]
7 nM

Form field - read-out: IC50; system: Human MGAT-2 (Homo sapiens (Human), UniProt Q3SYC2); submitted item: O=C1NC(c2ccc(OCCCCCC(F)(F)F)c(F)c2)(C(F)(F)F)CC(c2ccc3ccccc3c2)=C1c1nn[nH]n1 (stereo not drawn) [Example 304]
6 nM

Form field - read-out: IC50; system: Human MGAT-2 (Homo sapiens (Human), UniProt Q3SYC2); submitted item: Cc1ccc(C2=C(C(=O)Nc3cccc(C)c3)C(=O)NC(c3ccc(OCCC(F)(F)F)cc3)(C(F)(F)F)C2)cc1 (stereo not drawn)
328 nM

Form field - read-out: IC50; system: Human MGAT-2 (Homo sapiens (Human), UniProt Q3SYC2); submitted item: CCCCCCNC(=O)c1ccc(C2(C(F)(F)F)CC(c3ccc(C)cc3)=C(C(=O)Nc3ccc(OC)cc3)C(=O)N2)cc1 (stereo not drawn)
484 nM

Form field - read-out: IC50; system: Human MGAT-2 (Homo sapiens (Human), UniProt Q3SYC2); submitted item: COc1ccc(C2=C[C@](c3ccc(OCCCC(F)(F)F)cc3)(C(F)(F)F)NC(=O)C2(F)C#N)cc1 (single isomer, unassigned) [Example 15-1]
12 nM

Form field - read-out: IC50; system: Human MGAT-2 (Homo sapiens (Human), UniProt Q3SYC2); submitted item: N#CC1=C(c2ccc(Cl)c(F)c2)CC(c2ccc(OCCCC(F)(F)F)cc2)(C(F)(F)F)NC1=O (stereo not drawn)
13 nM

Form field - read-out: IC50; system: Human MGAT-2 (Homo sapiens (Human), UniProt Q3SYC2); submitted item: COc1ccc(NC(=O)C2=C(c3ccc(C)cc3F)CC(c3ccc(OCCCC(F)(F)F)cc3)(C(F)(F)F)NC2=O)cc1 (stereo not drawn)
2 nM

Form field - read-out: IC50; system: Human MGAT-2 (Homo sapiens (Human), UniProt Q3SYC2); submitted item: COc1ccc(C2=C(C#N)C(=O)NC(c3ccc(OCCCC(F)(F)F)cc3)(C(F)(F)F)C23CC3)cc1 (stereo not drawn)
2050 nM
